EXPERIMENTAL TARGET: Cannabinoid-1 receptor (CB1R) (Rattus norvegicus)
Construct: The tissue obtained from the brain of SD rats was homogenized; from tissue; host or cells: brain of SD rats (membrane pellet of the homogenate)
Sequence (P20272 whole entry): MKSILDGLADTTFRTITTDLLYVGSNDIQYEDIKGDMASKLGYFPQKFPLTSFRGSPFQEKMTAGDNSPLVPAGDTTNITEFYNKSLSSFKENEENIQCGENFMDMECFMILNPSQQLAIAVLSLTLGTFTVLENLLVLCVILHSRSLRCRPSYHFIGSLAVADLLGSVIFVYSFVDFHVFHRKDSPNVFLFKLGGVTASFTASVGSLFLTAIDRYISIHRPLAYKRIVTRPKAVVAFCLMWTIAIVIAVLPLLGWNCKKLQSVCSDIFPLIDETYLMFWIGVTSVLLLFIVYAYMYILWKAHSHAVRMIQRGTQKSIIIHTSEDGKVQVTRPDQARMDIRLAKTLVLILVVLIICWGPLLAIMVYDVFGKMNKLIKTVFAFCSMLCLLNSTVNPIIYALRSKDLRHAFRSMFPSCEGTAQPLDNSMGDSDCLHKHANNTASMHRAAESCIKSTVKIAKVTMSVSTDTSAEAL
METHOD SUMMARY: Cannabinoid-1 receptor (CB1R) binding affinity assay ([3H]CP-55940, rat CB-1 receptor binding protocol)
REPORTED CONDITIONS: brain tissue of SD rats, [3H]CP-55940, 30° C. 60 min; read-out: IC50
PARAMETER: IC50
Numeric answer plus unit only.

CCC(C)c1nnc(-c2nn(-c3ccc(Cl)cc3Cl)c(-c3ccc(Cl)cc3)c2Cl)o1 (stereo not shown) [Example 336] ... 207 nM
CCc1c(-c2nnc(CC3CCCCC3)o2)nn(-c2ccc(Cl)cc2Cl)c1-c1ccc(Br)cc1 [Example 55] ... 10.3 nM
CC(=O)c1c(-c2nnc(C(C)(C)C)o2)nn(-c2ccc(Cl)cc2Cl)c1-c1ccc(Br)cc1 [Example 214] ... 11.9 nM
CCc1c(-c2nnc(C3(c4ccccc4)CC3)s2)nn(-c2ccc(Cl)cc2Cl)c1-c1ccc(Cl)cc1 [Example 479] ... 6.56 nM
CC(C)(C)c1nnc(-c2nn(-c3ccc(Cl)cc3Cl)c(-c3ccc(Cl)cc3)c2Cl)o1 [Example 337] ... 105 nM
Clc1ccc(-c2c(Cn3cncn3)c(-c3nnc(C4(c5ccccc5)CCCC4)s3)nn2-c2ccc(Cl)cc2Cl)cc1 [Example 514] ... 2.88 nM

Please examine the following record next.
Exercise: GET /values?readout=IC50&item= FC(F)c1c(-c2nnc(C3(c4ccc(Cl)cc4)CC3)o2)nn(-c2ccc(Cl)cc2Cl)c1-c1ccc(Cl)cc1 [Example 225]
Solution: 12.1 nM
